- target: Human CD3eg linker (human)
- Sequence (chain, as listed by the source limits assumed): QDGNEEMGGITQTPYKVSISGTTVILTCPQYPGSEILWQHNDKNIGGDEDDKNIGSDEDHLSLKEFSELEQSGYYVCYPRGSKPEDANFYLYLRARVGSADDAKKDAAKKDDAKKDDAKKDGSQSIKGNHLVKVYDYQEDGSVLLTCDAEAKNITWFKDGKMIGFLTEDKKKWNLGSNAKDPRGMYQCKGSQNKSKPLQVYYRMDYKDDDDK
- testDescription: SPR; fold vs parent H183/L072
observedProperty: fold change of affinity
Units required after the number.

Lookup: Specify fold change of affinity for H183/L072 VL H34R (antibody, name in Kabat numbering, V domains shown) VH: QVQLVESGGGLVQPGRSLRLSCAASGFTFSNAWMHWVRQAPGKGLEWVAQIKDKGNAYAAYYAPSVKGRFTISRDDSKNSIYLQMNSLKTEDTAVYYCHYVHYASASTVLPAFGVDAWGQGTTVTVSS VL: DIVMTQSPLSLPVTPGEPASISCQASQELVHMNRNTYLRWYQQKPGQAPRLLIYKVSNRFPGVPDRFSGSGSGTDFTLKISRVEAEDVGVYYCAQGTSVPFTFGQGTKLEIK and stop.
Found: 0 fold

Lookup: Specify fold change of affinity for H183/L072 VL H34P (antibody, name in Kabat numbering, V domains shown) VH: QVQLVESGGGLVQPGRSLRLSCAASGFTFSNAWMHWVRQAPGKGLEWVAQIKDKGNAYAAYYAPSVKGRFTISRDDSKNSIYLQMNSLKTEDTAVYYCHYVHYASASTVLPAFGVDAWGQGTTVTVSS VL: DIVMTQSPLSLPVTPGEPASISCQASQELVHMNRNTYLPWYQQKPGQAPRLLIYKVSNRFPGVPDRFSGSGSGTDFTLKISRVEAEDVGVYYCAQGTSVPFTFGQGTKLEIK and stop.
Found: 0 fold

Lookup: Specify fold change of affinity for H183/L072 VL N30P (antibody, name in Kabat numbering, V domains shown) VH: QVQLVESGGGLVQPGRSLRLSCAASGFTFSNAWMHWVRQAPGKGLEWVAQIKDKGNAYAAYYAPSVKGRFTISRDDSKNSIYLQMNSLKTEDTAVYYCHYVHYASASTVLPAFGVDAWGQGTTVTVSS VL: DIVMTQSPLSLPVTPGEPASISCQASQELVHMNRPTYLHWYQQKPGQAPRLLIYKVSNRFPGVPDRFSGSGSGTDFTLKISRVEAEDVGVYYCAQGTSVPFTFGQGTKLEIK and stop.
Found: 0 fold

These entries and their values trace back to patent US20210388087A1.
